Each item that follows carries a reported IC50.
System: 755483-174-R-J1-PDC complex spheroid growth, percent test/control
assay_comment: Anticancer human tumor 755483-174-R-J1-PDC patient-derived rhabdomyosarcoma cell line growth inhibition [Asc]
recorded_conditions: curve of first compound; second compound 0.0949 µM
measured_property: IC50 (nM)

>  <compound>
NC(=O)C(=Cn1cnc(-c2cc(C(F)(F)F)cc(C(F)(F)F)c2)n1)c1cncnc1 + CCN1C(C(=O)NC23CCC(C(=O)O)(CC2)CC3)C(c2cccc(Cl)c2F)C2(C(=O)Nc3cc(Cl)ccc32)C12CCCCC2

>  <measured_property>
IC50

>  <qual>
=

>  <value_measured>
3.99

$$$$
>  <compound>
O=C(c1cc(Cc2n[nH]c(=O)c3ccccc23)ccc1F)N1CCN(C(=O)C2CC2)CC1 + CCN1C(C(=O)NC23CCC(C(=O)O)(CC2)CC3)C(c2cccc(Cl)c2F)C2(C(=O)Nc3cc(Cl)ccc32)C12CCCCC2

>  <measured_property>
IC50

>  <qual>
=

>  <value_measured>
2560

$$$$
>  <compound>
CNC(C)C(=O)NC1CN(S(=O)(=O)c2cccc(S(=O)(=O)N3CCC4CCC(C(=O)NC(c5ccccc5)c5ccccc5)N4C(=O)C(NC(=O)C(C)NC)C3)c2)CCC2CCC(C(=O)NC(c3ccccc3)c3ccccc3)N2C1=O (centres undefined) + CCN1C(C(=O)NC23CCC(C(=O)O)(CC2)CC3)C(c2cccc(Cl)c2F)C2(C(=O)Nc3cc(Cl)ccc32)C12CCCCC2

>  <measured_property>
IC50

>  <qual>
=

>  <value_measured>
42.9

$$$$
>  <compound>
C=CC(=O)N1CCN(c2nc(=O)n(-c3c(C)ccnc3C(C)C)c3nc(-c4c(O)cccc4F)c(F)cc23)C(C)C1 (centres undefined) + CCN1C(C(=O)NC23CCC(C(=O)O)(CC2)CC3)C(c2cccc(Cl)c2F)C2(C(=O)Nc3cc(Cl)ccc32)C12CCCCC2

>  <measured_property>
IC50

>  <qual>
>

>  <value_measured>
10000

$$$$
>  <compound>
Cn1ncnc1[C@H]1c2n[nH]c(=O)c3cc(F)cc(c23)N[C@@H]1c1ccc(F)cc1 + CCN1C(C(=O)NC23CCC(C(=O)O)(CC2)CC3)C(c2cccc(Cl)c2F)C2(C(=O)Nc3cc(Cl)ccc32)C12CCCCC2

>  <measured_property>
IC50

>  <qual>
=

>  <value_measured>
12.4

$$$$
>  <compound>
C#Cc1c(F)ccc2cc(O)cc(-c3ncc4c(N5CC6CCC(C5)N6)nc(OCC56CCCN5CC(F)C6)nc4c3F)c12 (centres undefined) + CCN1C(C(=O)NC23CCC(C(=O)O)(CC2)CC3)C(c2cccc(Cl)c2F)C2(C(=O)Nc3cc(Cl)ccc32)C12CCCCC2

>  <measured_property>
IC50

>  <qual>
=

>  <value_measured>
9370

$$$$
>  <compound>
Cc1nc(N2CCC3(CC2)COC(C)C3N)c(CO)nc1Sc1ccnc(N)c1Cl (centres undefined) + CCN1C(C(=O)NC23CCC(C(=O)O)(CC2)CC3)C(c2cccc(Cl)c2F)C2(C(=O)Nc3cc(Cl)ccc32)C12CCCCC2

>  <measured_property>
IC50

>  <qual>
=

>  <value_measured>
371

$$$$
>  <compound>
NC1CCC(NC2CC2c2ccccc2)CC1 (centres undefined) + CCN1C(C(=O)NC23CCC(C(=O)O)(CC2)CC3)C(c2cccc(Cl)c2F)C2(C(=O)Nc3cc(Cl)ccc32)C12CCCCC2

>  <measured_property>
IC50

>  <qual>
>

>  <value_measured>
100

$$$$
>  <compound>
CCN1CCN(Cc2ccc(Nc3ncc(F)c(-c4cc(F)c5nc(C)n(C(C)C)c5c4)n3)nc2)CC1 + CCN1C(C(=O)NC23CCC(C(=O)O)(CC2)CC3)C(c2cccc(Cl)c2F)C2(C(=O)Nc3cc(Cl)ccc32)C12CCCCC2

>  <measured_property>
IC50

>  <qual>
>

>  <value_measured>
1000

$$$$

###

Test system: 755483-174-R-J1-PDC complex spheroid growth, percent test/control
assay_comment: Anticancer human tumor 755483-174-R-J1-PDC cell line growth inhibition [Asc];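 also: spheroids exposed to compounds for seven days before readout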
recorded_conditions: second compound 3 µM; first compound 3.16 µM; stronger effect = lower value
Excerpt: Multicellular complex tumor spheroid response to apoptosis pathway targeting inhibitors Alrizomadlin, Pelcitoclax, and Dasminapant in combination with a variety of drugs and investigational agents in selected tumor cell lines […] Compounds. […] If the clinical Cmax for an agent had not been determined, the highest concentration tested was 10 microM. […]
Each item that follows carries a reported viability, T/C.

>  <molecule>
O=C(c1cc(Cc2n[nH]c(=O)c3ccccc23)ccc1F)N1CCN(C(=O)C2CC2)CC1 + CCN1C(C(=O)NC23CCC(C(=O)O)(CC2)CC3)C(c2cccc(Cl)c2F)C2(C(=O)Nc3cc(Cl)ccc32)C12CCCCC2

>  <readout_unit>
%

>  <viability, T/C>
51.4

$$$$
>  <molecule>
C=CC(=O)N1CCN(c2nc(=O)n(-c3c(C)ccnc3C(C)C)c3nc(-c4c(O)cccc4F)c(F)cc23)C(C)C1 (centres undefined) + CCN1C(C(=O)NC23CCC(C(=O)O)(CC2)CC3)C(c2cccc(Cl)c2F)C2(C(=O)Nc3cc(Cl)ccc32)C12CCCCC2

>  <readout_unit>
%

>  <viability, T/C>
76.7

$$$$
>  <molecule>
C#Cc1c(F)ccc2cc(O)cc(-c3ncc4c(N5CC6CCC(C5)N6)nc(OCC56CCCN5CC(F)C6)nc4c3F)c12 (centres undefined) + CCN1C(C(=O)NC23CCC(C(=O)O)(CC2)CC3)C(c2cccc(Cl)c2F)C2(C(=O)Nc3cc(Cl)ccc32)C12CCCCC2

>  <readout_unit>
%

>  <viability, T/C>
80.6

$$$$
>  <molecule>
C=C(F)C(=O)N1CCN(c2nc(OCC3CCCN3C)nc3c2CCN(c2cccc4cccc(Cl)c24)C3)CC1CC#N (centres undefined) + CCN1C(C(=O)NC23CCC(C(=O)O)(CC2)CC3)C(c2cccc(Cl)c2F)C2(C(=O)Nc3cc(Cl)ccc32)C12CCCCC2

>  <readout_unit>
%

>  <viability, T/C>
25.3

$$$$

###

Test system: 755483-174-R-J1-PDC complex spheroid growth, percent test/control
assay_comment: Anticancer human tumor 755483-174-R-J1-PDC cell line growth inhibition [Asc];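 also: spheroids exposed to compounds for seven days before readout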
recorded_conditions: second compound 10 µM; first compound 0.0316 µM; stronger effect = lower value

>  <molecule>
C=C(F)C(=O)N1CCN(c2nc(OCC3CCCN3C)nc3c2CCN(c2cccc4cccc(Cl)c24)C3)CC1CC#N (stereo not drawn) + Cc1c(S(C)(=O)=O)c(-c2cc(F)cc(N3CCN(c4ccc(NS(=O)(=O)c5ccc(NC(CCN6CCC(C(=O)OCCCP(=O)(O)O)CC6)CSc6ccccc6)c(S(=O)(=O)C(F)(F)F)c5)cc4)CC3)c2)c(-c2ccc(Cl)cc2)n1C(C)C

>  <viability, T/C / %>
42.9

$$$$
>  <molecule>
NC1CCC(NC2CC2c2ccccc2)CC1 (stereo not drawn) + Cc1c(S(C)(=O)=O)c(-c2cc(F)cc(N3CCN(c4ccc(NS(=O)(=O)c5ccc(NC(CCN6CCC(C(=O)OCCCP(=O)(O)O)CC6)CSc6ccccc6)c(S(=O)(=O)C(F)(F)F)c5)cc4)CC3)c2)c(-c2ccc(Cl)cc2)n1C(C)C

>  <viability, T/C / %>
24.5

$$$$
>  <molecule>
C#Cc1c(F)ccc2cc(O)cc(-c3ncc4c(N5CC6CCC(C5)N6)nc(OCC56CCCN5CC(F)C6)nc4c3F)c12 (stereo not drawn) + Cc1c(S(C)(=O)=O)c(-c2cc(F)cc(N3CCN(c4ccc(NS(=O)(=O)c5ccc(NC(CCN6CCC(C(=O)OCCCP(=O)(O)O)CC6)CSc6ccccc6)c(S(=O)(=O)C(F)(F)F)c5)cc4)CC3)c2)c(-c2ccc(Cl)cc2)n1C(C)C

>  <viability, T/C / %>
37.9

$$$$
>  <molecule>
CCN1CCN(Cc2ccc(Nc3ncc(F)c(-c4cc(F)c5nc(C)n(C(C)C)c5c4)n3)nc2)CC1 + Cc1c(S(C)(=O)=O)c(-c2cc(F)cc(N3CCN(c4ccc(NS(=O)(=O)c5ccc(NC(CCN6CCC(C(=O)OCCCP(=O)(O)O)CC6)CSc6ccccc6)c(S(=O)(=O)C(F)(F)F)c5)cc4)CC3)c2)c(-c2ccc(Cl)cc2)n1C(C)C

>  <viability, T/C / %>
55

$$$$
>  <molecule>
C=CC(=O)N1CCN(c2nc(=O)n(-c3c(C)ccnc3C(C)C)c3nc(-c4c(O)cccc4F)c(F)cc23)C(C)C1 (stereo not drawn) + Cc1c(S(C)(=O)=O)c(-c2cc(F)cc(N3CCN(c4ccc(NS(=O)(=O)c5ccc(NC(CCN6CCC(C(=O)OCCCP(=O)(O)O)CC6)CSc6ccccc6)c(S(=O)(=O)C(F)(F)F)c5)cc4)CC3)c2)c(-c2ccc(Cl)cc2)n1C(C)C

>  <viability, T/C / %>
35

$$$$
>  <molecule>
CNC(C)C(=O)NC1CN(S(=O)(=O)c2cccc(S(=O)(=O)N3CCC4CCC(C(=O)NC(c5ccccc5)c5ccccc5)N4C(=O)C(NC(=O)C(C)NC)C3)c2)CCC2CCC(C(=O)NC(c3ccccc3)c3ccccc3)N2C1=O (stereo not drawn) + Cc1c(S(C)(=O)=O)c(-c2cc(F)cc(N3CCN(c4ccc(NS(=O)(=O)c5ccc(NC(CCN6CCC(C(=O)OCCCP(=O)(O)O)CC6)CSc6ccccc6)c(S(=O)(=O)C(F)(F)F)c5)cc4)CC3)c2)c(-c2ccc(Cl)cc2)n1C(C)C

>  <viability, T/C / %>
16.1

$$$$
>  <molecule>
O=C(c1ccc(F)c(F)c1Nc1ccc(I)cc1F)N1CC(O)([C@@H]2CCCCN2)C1 + Cc1c(S(C)(=O)=O)c(-c2cc(F)cc(N3CCN(c4ccc(NS(=O)(=O)c5ccc(NC(CCN6CCC(C(=O)OCCCP(=O)(O)O)CC6)CSc6ccccc6)c(S(=O)(=O)C(F)(F)F)c5)cc4)CC3)c2)c(-c2ccc(Cl)cc2)n1C(C)C

>  <viability, T/C / %>
32.1

$$$$
>  <molecule>
O=C(c1cc(Cc2n[nH]c(=O)c3ccccc23)ccc1F)N1CCN(C(=O)C2CC2)CC1 + Cc1c(S(C)(=O)=O)c(-c2cc(F)cc(N3CCN(c4ccc(NS(=O)(=O)c5ccc(NC(CCN6CCC(C(=O)OCCCP(=O)(O)O)CC6)CSc6ccccc6)c(S(=O)(=O)C(F)(F)F)c5)cc4)CC3)c2)c(-c2ccc(Cl)cc2)n1C(C)C

>  <viability, T/C / %>
20.1

$$$$
